# Lookup of reported EC50 keyed by entry
molecular target: human GPR142 receptor (Homo sapiens, UniProt Q7Z601); construct: Gene ID: 350383) was cloned; expressed in transfected cells; assay: IP1 accumulation HTRF assay for GPR142 agonist activity in HEK293 FLPinTREX cells; type: cell-based; settings: HEK293 FLPinTREX cells stably expressing human GPR142, IP1 generation (IP-One HTRF), 60 minutes at 37° C.
Sequence (Q7Z601 whole entry): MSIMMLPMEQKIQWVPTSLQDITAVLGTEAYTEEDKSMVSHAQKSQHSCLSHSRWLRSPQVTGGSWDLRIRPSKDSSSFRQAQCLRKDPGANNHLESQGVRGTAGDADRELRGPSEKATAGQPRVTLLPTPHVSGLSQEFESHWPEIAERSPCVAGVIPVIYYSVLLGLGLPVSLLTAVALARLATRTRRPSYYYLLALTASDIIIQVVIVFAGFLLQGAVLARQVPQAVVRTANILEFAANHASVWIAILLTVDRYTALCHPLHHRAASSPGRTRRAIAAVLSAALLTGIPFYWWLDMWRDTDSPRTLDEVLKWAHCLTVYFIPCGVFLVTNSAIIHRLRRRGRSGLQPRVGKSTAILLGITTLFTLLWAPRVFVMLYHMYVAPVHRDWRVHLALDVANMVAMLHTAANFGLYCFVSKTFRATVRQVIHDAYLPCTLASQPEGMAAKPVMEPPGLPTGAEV
# include the unit after the value

// known answers, use as guide
[[record]]
mol_smiles = "Cn1cncc1-c1cn(-c2cccc(C(=O)Nc3cccc(C(F)(F)F)c3)c2)nn1"
measured_value = "0.05 nM"

[[record]]
mol_smiles = "CN(C)c1cccc(NC(=O)c2cccc(-n3cc(-c4cncn4C)nn3)c2)c1"
measured_value = "0.85 nM"

[[record]]
mol_smiles = "COC(=O)c1cccc(NC(=O)c2cccc(-n3cc(-c4cncn4C)nn3)c2)c1"
measured_value = "0.73 nM"


Let us move to another entry and its EC50.
The reported EC50 of the compound Cc1ncn(C)c1-c1cn(-c2cccc(C(=O)Nc3cccc(Cl)c3)c2)nn1 was 0.95 nM
